Each entry below lists one item and its recorded solubility at 24 h value.
Test: physchem
Details: phosphate buffer, pH 7.4
reported.endpoint: solubility at 24 h (µM)

COc1cc(N)nc2cc(CN3C(=O)c4cc(F)ccc4[C@]34CCN(Cc3ccc(F)cc3)C4=O)[nH]c12; 610
Nc1ccc2oc(CN3C(=O)c4cc(F)ccc4[C@]34CCN(Cc3ccc(F)cc3)C4=O)cc2n1; 243
Nc1cc(C(F)F)c2[nH]c(CN3C(=O)c4cc(F)ccc4[C@]34CCN(Cc3ccc(F)cc3)C4=O)cc2n1; 86

----------
Assay: physchem
Settings: buffer, pH 7.4
Description: Lipophilicity, logD of compound at pH 7.4
reported.endpoint: logD

N=C(N)Nc1nnc(CN2C(=O)c3ccccc3C2C(=O)NCc2ccc(F)cc2)s1 (stereo unspecified); 1.7
O=C1c2cc(F)ccc2[C@]2(CCN(Cc3ccc(F)cc3)C2=O)N1Cc1cc2cnccc2[nH]1; 2.4
O=C(NCc1ccc(F)cc1)C1c2ccccc2C(=O)N1Cc1cc2ncccc2[nH]1 (stereo unspecified); 3
O=C(NCc1ccc(F)cc1)C1c2ccc(F)cc2C(=O)N1Cc1cc2cccnc2[nH]1 (stereo unspecified); 3.2
O=C1c2cc(F)ccc2[C@]2(CCN(Cc3ccc(F)cc3)C2=O)N1Cc1cc2cccnc2[nH]1; 3.4
Cn1c(CN2C(=O)c3cc(F)ccc3[C@]23CCN(Cc2ccc(F)cc2)C3=O)cc2nc(N)ccc21; 2.2
O=C1c2cc(F)ccc2[C@]2(CCN(Cc3ccc(F)cc3)C2=O)N1Cc1cc2ccncc2[nH]1; 2.8
COc1cccc2c1C(=O)N(Cc1cnc(NC(=N)N)s1)C2C(=O)NCc1ccc(F)cc1 (stereo unspecified); 1.9
Nc1nc2cc(CN3C(=O)c4cc(F)ccc4[C@]34CCN(Cc3ccc(F)cc3)C4=O)[nH]c2cc1F; 2.8
O=C1c2cc(F)ccc2[C@@]2(CCN(Cc3ccc(F)cc3)C2=O)N1Cc1cc2cccnc2[nH]1; 3.4
O=C1c2cc(F)ccc2[C@]2(CCN(Cc3ccc(F)cc3)C2=O)N1Cc1cc2ncccc2[nH]1; 3.1

----------
Test: Intrinsic clearance in rat hepatocytes assessed per million cells
Format: ADME, cell-based, Hepatocyte
Conditions: read-out: CLH
// classify: if (hepatocyte CLint < 20 µL/min/1e6 cells) condition met else condition not met

O=C(NCc1ccc(F)cc1)C1c2ccc(F)cc2C(=O)N1Cc1cc2cccnc2[nH]1 (stereo not drawn); condition not met
Nc1ccc2ncc(CN3C(=O)c4cc(F)ccc4[C@]34CCN(Cc3ccc(F)cc3)C4=O)cc2n1; condition not met
Cn1c(CN2C(=O)c3cc(F)ccc3[C@]23CCN(Cc2ccc(F)cc2)C3=O)cc2nc(N)ccc21; condition not met
N=C(N)Nc1ncc(CN2C(=O)c3ccccc3C2C(=O)NCc2ccc(F)cc2)s1 (stereo not drawn); condition not met
COc1cccc2c1C(=O)N(Cc1cnc(NC(=N)N)s1)C2C(=O)NCc1ccc(F)cc1 (stereo not drawn); condition met
O=C1c2cc(F)ccc2[C@@]2(CCN(Cc3ccc(F)cc3)C2=O)N1Cc1cc2cccnc2[nH]1; condition not met
CN(Cc1ccc(F)cc1)C(=O)C1c2ccccc2C(=O)N1Cc1cnc(NC(=N)N)s1 (stereo not drawn); condition not met
Nc1ccc2cc(CN3C(=O)c4cc(F)ccc4[C@]34CCN(Cc3ccc(F)cc3)C4=O)[nH]c2n1; condition met
O=C(NCc1ccc(F)cc1)C1c2ccccc2C(=O)N1Cc1cc2ncccc2[nH]1 (stereo not drawn); condition not met
N=C(N)Nc1ncc(CN2C(=O)c3ccccc3C2C(=O)N(Cc2ccc(F)cc2)C2CC2)s1 (stereo not drawn); condition not met
N#Cc1ccc2c(c1)C(C(=O)NCc1ccc(F)cc1)N(Cc1cnc(NC(=N)N)s1)C2=O (stereo not drawn); condition met
Nc1nc2cc(CN3C(=O)c4cc(F)ccc4[C@]34CCN(Cc3ccc(F)cc3)C4=O)[nH]c2cc1F; condition met
Nc1ccc2oc(CN3C(=O)c4cc(F)ccc4[C@]34CCN(Cc3ccc(F)cc3)C4=O)cc2n1; condition not met
Nc1ccc2[nH]c(CN3C(=O)c4cc(F)ccc4[C@]34CCN(Cc3ccc(F)cc3)C4=O)cc2n1; condition met
O=C1c2cc(F)ccc2[C@]2(CCN(Cc3ccc(F)cc3)C2=O)N1Cc1cc2cccnc2[nH]1; condition not met
N=C(N)Nc1cc(CN2C(=O)c3ccccc3C2C(=O)NCc2ccc(F)cc2)ccn1 (stereo not drawn); condition met
Nc1ccc2[nH]c(CN3C(=O)c4cc(F)ccc4[C@]34CCN(Cc3ccc(F)cc3)C4=O)nc2n1; condition met
N=C(N)Nc1ncc(CN2C(=O)c3cc(F)ccc3C2C(=O)NCc2ccc(F)cc2)s1 (stereo not drawn); condition met
O=C1c2cc(F)ccc2[C@]2(CCN(Cc3ccc(F)cc3)C2=O)N1Cc1cc2ncccc2[nH]1; condition not met
O=C(NCc1ccc(F)cc1)C1c2ccc(F)cc2C(=O)N1Cc1cc2ncccc2[nH]1 (stereo not drawn); condition not met
O=C1c2cc(F)ccc2[C@]2(CCN(Cc3ccc(F)cc3)C2=O)N1Cc1cc2cnccc2[nH]1; condition met
CNC(=N)Nc1ncc(CN2C(=O)c3cc(F)ccc3C2C(=O)NCc2ccc(F)cc2)s1 (stereo not drawn); condition met
COc1ccc2c(c1)C(=O)N(Cc1cnc(NC(=N)N)s1)C2C(=O)NCc1ccc(F)cc1 (stereo not drawn); condition not met
